molecular target: VRC01-resistant viruses
property_name: neutralisation median IC50 (µg/mL)

[[record]]
binder = "N6 VRC07CDRH3 (antibody, V domains shown) VH: RAHLVQSGTAMKKPGASVRVSCQTSGYTFTAHILFWFRQAPGRGLEWVGWIKPQYGAVNFGGGFRDRVTLTRDVYREIAYMDIRGLKPDDTAVYYCARGKYCTARDYYNWALDAWGQGTTVVVSA VL: YIHVTQSPSSLSVSIGDRVTINCQTSQGVGSDLHWYQHKPGRAPKLLIHHTSSVEDGVPSRFSGSGFHTSFNLTISDLQADDIATYYCQVLQFFGRGSRLHIK"
limit_qualifier = "="
observed_value = 48.2

[[record]]
binder = "N6 VRC08CDRH3 (antibody, V domains shown) VH: RAHLVQSGTAMKKPGASVRVSCQTSGYTFTAHILFWFRQAPGRGLEWVGWIKPQYGAVNFGGGFRDRVTLTRDVYREIAYMDIRGLKPDDTAVYYCARGRSCCGGRRHCNGADCFNWALDAWGQGTTVVVSA VL: YIHVTQSPSSLSVSIGDRVTINCQTSQGVGSDLHWYQHKPGRAPKLLIHHTSSVEDGVPSRFSGSGFHTSFNLTISDLQADDIATYYCQVLQFFGRGSRLHIK"
limit_qualifier = ">"
observed_value = 50

[[record]]
binder = "N6 Y54GHC (antibody, V domains shown) VH: RAHLVQSGTAMKKPGASVRVSCQTSGYTFTAHILFWFRQAPGRGLEWVGWIKPQGGAVNFGGGFRDRVTLTRDVYREIAYMDIRGLKPDDTAVYYCARDRSYGDSSWALDAWGQGTTVVVSA VL: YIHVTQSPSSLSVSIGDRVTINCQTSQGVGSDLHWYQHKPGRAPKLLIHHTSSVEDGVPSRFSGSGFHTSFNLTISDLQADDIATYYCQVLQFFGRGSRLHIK"
limit_qualifier = "="
observed_value = 0.562

[[record]]
binder = "N6 GGG60-62ARPHC (antibody, V domains shown) VH: RAHLVQSGTAMKKPGASVRVSCQTSGYTFTAHILFWFRQAPGRGLEWVGWIKPQYGAVNFARPFRDRVTLTRDVYREIAYMDIRGLKPDDTAVYYCARDRSYGDSSWALDAWGQGTTVVVSA VL: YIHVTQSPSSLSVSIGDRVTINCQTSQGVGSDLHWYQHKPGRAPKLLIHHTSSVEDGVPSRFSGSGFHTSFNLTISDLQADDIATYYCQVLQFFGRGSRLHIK"
limit_qualifier = "="
observed_value = 0.248


Hey, just so you know, these numbers are from patent US20180298083A1.
